Values from paper PMC6582431

Molecular target: MAGL (Rattus norvegicus, UniProt Q8R431)
Experiment: MAGL activity in rat cerebellum cytosol
Format: biochemical
Conditions: C inhib=100 μM in rat cerebellum cytosol; Table 4
Experimental endpoint: MAGL (100 μM), percent of control

{"Compound": "CC1(C)COCN1C(=O)n1nnc2ccccc21", "Measurement target": "MAGL (Rattus norvegicus, UniProt Q8R431)", "Experimental endpoint": "MAGL (100 μM), percent of control", "Value measured": "90±5% of control"}
{"Compound": "CC1(C)COCN1C(=O)n1nnc2cccnc21", "Measurement target": "MAGL (Rattus norvegicus, UniProt Q8R431)", "Experimental endpoint": "MAGL (100 μM), percent of control", "Value measured": "72±5% of control"}
{"Compound": "NC(=O)c1cccc(-c2cccc(OC(=O)NC3CCCCC3)c2)c1 [Compound 2, URB597, reference compound]", "Measurement target": "MAGL (Rattus norvegicus, UniProt Q8R431)", "Experimental endpoint": "MAGL (100 μM), percent of control", "Value measured": "87±4% of control"}
{"Compound": "CC1(C)COCN1C(=O)n1nnc2ccc(Br)cc21", "Measurement target": "MAGL (Rattus norvegicus, UniProt Q8R431)", "Experimental endpoint": "MAGL (100 μM), percent of control", "Value measured": "67±12% of control"}
{"Compound": "O=C(Nc1cccnc1)N1CCC(Cc2cccc(Oc3ccc(C(F)(F)F)cn3)c2)CC1 [Compound 3, PF3845, reference compound]", "Measurement target": "MAGL (Rattus norvegicus, UniProt Q8R431)", "Experimental endpoint": "MAGL (100 μM), percent of control", "Value measured": "87±12% of control"}
{"Compound": "CC1(C)COCN1C(=O)n1nnc2cc(C(N)=O)ccc21", "Measurement target": "MAGL (Rattus norvegicus, UniProt Q8R431)", "Experimental endpoint": "MAGL (100 μM), percent of control", "Value measured": "96±2% of control"}

====

Molecular target: MAGL (Rattus norvegicus, UniProt Q8R431)
Sequence (Q8R431 1-303): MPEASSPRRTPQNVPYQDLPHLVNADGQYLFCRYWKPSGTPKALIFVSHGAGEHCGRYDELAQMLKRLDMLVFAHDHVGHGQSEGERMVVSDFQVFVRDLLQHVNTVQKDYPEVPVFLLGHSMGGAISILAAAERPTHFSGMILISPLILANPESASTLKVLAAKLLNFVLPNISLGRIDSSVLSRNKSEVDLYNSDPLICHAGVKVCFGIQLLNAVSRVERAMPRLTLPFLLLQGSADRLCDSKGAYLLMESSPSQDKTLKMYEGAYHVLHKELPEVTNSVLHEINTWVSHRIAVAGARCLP
pIC50: −log10 of the molar value.
Experimental endpoint: pIC50

{"Chem smiles": "CN(C(=O)n1nnc2ccccc21)c1ccccc1", "Value measured": "< 4.00"}

====

Target: FAAH (Rattus norvegicus)
Sequence (P97612 whole entry): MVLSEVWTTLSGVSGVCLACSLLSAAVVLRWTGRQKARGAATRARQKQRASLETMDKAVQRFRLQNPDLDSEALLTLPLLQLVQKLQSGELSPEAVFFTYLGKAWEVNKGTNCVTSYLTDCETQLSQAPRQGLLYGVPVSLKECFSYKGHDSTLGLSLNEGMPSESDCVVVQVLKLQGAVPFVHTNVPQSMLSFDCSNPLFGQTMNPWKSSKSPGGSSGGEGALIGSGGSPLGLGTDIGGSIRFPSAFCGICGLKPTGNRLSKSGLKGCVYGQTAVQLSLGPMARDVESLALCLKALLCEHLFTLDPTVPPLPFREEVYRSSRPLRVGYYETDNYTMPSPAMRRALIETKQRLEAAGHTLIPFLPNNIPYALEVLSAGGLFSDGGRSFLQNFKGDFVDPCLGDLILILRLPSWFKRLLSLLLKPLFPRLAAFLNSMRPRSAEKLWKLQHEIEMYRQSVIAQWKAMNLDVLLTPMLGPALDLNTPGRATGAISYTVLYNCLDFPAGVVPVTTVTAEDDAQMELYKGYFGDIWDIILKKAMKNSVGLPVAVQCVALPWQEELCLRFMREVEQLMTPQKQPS
Assay: In vitro FAAH activity in rat brain homogenates/membranes
Type: biochemical
Settings: 100 nM; rat brain homogenates, 15 min pre-incubation; Table 5
Below, each entry is listed alongside its reported FAAH activity, percent of control, 100 nM.
Experimental endpoint: FAAH activity, percent of control, 100 nM

{"Molecule": "CN(C(=O)n1cnc(-c2ccccc2)c1)c1ccccc1 [Compound 8 b]", "Value measured": "84±7% of control"}
{"Molecule": "CN(C(=O)n1cnc(-c2ccc[n+]([O-])c2)c1)C1CCCCC1 [Compound 8 l]", "Value measured": "85±11% of control"}
{"Molecule": "O=C(N1CCN(Cc2ccccc2)CC1)n1cnc(-c2ccccc2)c1 [Compound 8 g]", "Value measured": "1±0% of control"}
{"Molecule": "CN(C(=O)n1cnc(-c2ccccc2)c1)C1CCOCC1 [Compound 8 i]", "Value measured": "104±18% of control"}
{"Molecule": "CN(C(=O)n1cnc(-c2ccccc2)c1)C1CCCCC1 [Compound 8 j]", "Value measured": "37±3% of control"}
{"Molecule": "CN(C(=O)n1cnc(-c2ccccc2)c1)C1CCN(Cc2ccccc2)CC1 [Compound 8 h]", "Value measured": "41±7% of control"}
{"Molecule": "CN(C(=O)n1cnc(-c2cccnc2)c1)C1CCCCC1 [Compound 8 k]", "Value measured": "75±7% of control"}
{"Molecule": "CC1(C)COCN1C(=O)n1cnc(-c2ccccc2)c1 [Compound 8 f]", "Value measured": "94±10% of control"}

====

Below, each entry is listed alongside its reported Brain FAAH activity, percent of control.
Molecular target: FAAH (Mus musculus, UniProt O08914)
Sequence (O08914 whole entry): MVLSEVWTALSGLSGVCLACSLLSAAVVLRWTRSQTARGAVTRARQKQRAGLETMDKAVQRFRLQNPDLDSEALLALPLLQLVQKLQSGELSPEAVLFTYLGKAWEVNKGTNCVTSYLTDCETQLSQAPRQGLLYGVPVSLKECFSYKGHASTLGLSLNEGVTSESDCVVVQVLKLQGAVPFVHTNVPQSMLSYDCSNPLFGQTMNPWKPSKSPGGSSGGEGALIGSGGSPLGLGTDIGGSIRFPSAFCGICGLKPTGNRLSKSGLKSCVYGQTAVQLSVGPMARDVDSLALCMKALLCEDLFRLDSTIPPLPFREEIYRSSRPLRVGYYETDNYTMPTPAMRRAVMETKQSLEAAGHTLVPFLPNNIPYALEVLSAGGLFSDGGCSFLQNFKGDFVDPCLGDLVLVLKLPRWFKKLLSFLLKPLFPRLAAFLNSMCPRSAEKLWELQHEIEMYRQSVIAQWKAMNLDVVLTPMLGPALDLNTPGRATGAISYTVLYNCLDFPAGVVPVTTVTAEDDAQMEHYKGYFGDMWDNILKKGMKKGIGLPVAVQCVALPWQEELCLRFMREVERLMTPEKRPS
Experiment: In vivo FAAH inhibition, brain, after oral administration to mice
Conditions: 0.1 mg kg^−1 p.o. in mice, 8 h after administration; Table 5

{"Chem smiles": "CN(C(=O)n1cnc(-c2ccccc2)c1)C1CCCCC1", "Brain FAAH activity, percent of control": "86±5% of control"}
{"Chem smiles": "CN(C(=O)n1cnc(-c2ccccc2)c1)C1CCOCC1", "Brain FAAH activity, percent of control": "38±18% of control"}
{"Chem smiles": "CC1(C)COCN1C(=O)n1cnc(-c2ccccc2)c1", "Brain FAAH activity, percent of control": "92±7% of control"}
{"Chem smiles": "CN(C(=O)n1cnc(-c2ccc[n+]([O-])c2)c1)C1CCCCC1", "Brain FAAH activity, percent of control": "8±2% of control"}
{"Chem smiles": "CN(C(=O)n1cnc(-c2cccnc2)c1)C1CCCCC1", "Brain FAAH activity, percent of control": "75±16% of control"}
{"Chem smiles": "CN(C(=O)n1cnc(-c2ccccc2)c1)C1CCN(Cc2ccccc2)CC1", "Brain FAAH activity, percent of control": "11±4% of control"}

====

Below, each entry is listed alongside its reported CYP450 metabolic stability, Human, percent of remaining.
Test: CYP450 metabolic stability, human liver microsomes
Assay type: in vitro ADME
Conditions: 5 μM in liver microsomes, 1 h incubation
Experimental endpoint: CYP450 metabolic stability, Human, percent of remaining

{"Chem smiles": "CC1(C)COCN1C(=O)n1nnc2cc(C(N)=O)ccc21", "Value measured": "96±8% of remaining"}
{"Chem smiles": "CN(C(=O)n1cnc(-c2ccc[n+]([O-])c2)c1)C1CCCCC1", "Value measured": "95±1% of remaining"}
{"Chem smiles": "CC1(C)COCN1C(=O)n1nnc2ccccc21", "Value measured": "52±9% of remaining"}
{"Chem smiles": "CN(C(=O)n1cnc(-c2ccccc2)c1)C1CCN(Cc2ccccc2)CC1", "Value measured": "75±4% of remaining"}

====

Biological target: FAAH (Mus musculus, UniProt O08914)
Assay: In vivo FAAH inhibition, liver, after oral administration to mice
Details: 30 mg kg^−1 p.o. in mice, 1 h after administration; Table 2
Experimental endpoint: Liver FAAH activity, percent of control

{"Compound": "CN(C(=O)n1nnc2ccccc21)c1ccccc1 [Compound 10 a]", "Value measured": "34±5% of control"}
{"Compound": "O=C(Nc1cccnc1)N1CCC(Cc2cccc(Oc3ccc(C(F)(F)F)cn3)c2)CC1 [Compound 3, PF3845, reference compound]", "Value measured": "2±2% of control"}
{"Compound": "Cl.O=C(N1CCN(Cc2ccccc2)CC1)n1nnc2ccccc21 [Compound 10 i]", "Value measured": "15±4% of control"}
{"Compound": "CN(Cc1ccccc1)C(=O)n1nnc2ccccc21 [Compound 10 f]", "Value measured": "6±2% of control"}
{"Compound": "CC1(C)COCN1C(=O)n1nnc2ccccc21 [Compound 11 a]", "Value measured": "2±1% of control"}

====

Target: FAAH (Rattus norvegicus)
pIC50: −log10 of the molar value.

{"Compound": "CC1(C)COCN1C(=O)n1nnc2ccccc21 [Compound 11 a]", "pIC50": 7.72}
{"Compound": "CN(C(=O)n1nnc2ccccc21)c1ccccc1 [Compound 10 a]", "pIC50": 8.15}

====

Below, each entry is listed alongside its reported MAGL activity, percent of control.
Biological target: MAGL (Rattus norvegicus, UniProt Q8R431)
Assay: MAGL activity in rat cerebellum cytosol
Assay type: biochemical
Settings: C inhib=100 μM in rat cerebellum cytosol; Table 2
Experimental endpoint: MAGL activity, percent of control

{"Molecule": "O=C(N1CCCCCCC1)n1nnc2ccccc21", "Measurement target": "MAGL (Rattus norvegicus, UniProt Q8R431)", "Experimental endpoint": "MAGL activity, percent of control", "Value measured": "58±6% of control"}
{"Molecule": "C[C@@H]1CCC[C@H](C)N1C(=O)n1nnc2ccccc21", "Measurement target": "MAGL (Rattus norvegicus, UniProt Q8R431)", "Experimental endpoint": "MAGL activity, percent of control", "Value measured": "35±5% of control"}
{"Molecule": "O=C(N1CCN(c2ccccc2)CC1)n1nnc2ccccc21", "Measurement target": "MAGL (Rattus norvegicus, UniProt Q8R431)", "Experimental endpoint": "MAGL activity, percent of control", "Value measured": "12±4% of control"}
{"Molecule": "CC1(C)COCN1C(=O)n1nnc2ccccc21", "Measurement target": "MAGL (Rattus norvegicus, UniProt Q8R431)", "Experimental endpoint": "MAGL activity, percent of control", "Value measured": "90±5% of control"}
{"Molecule": "O=C(Nc1cccnc1)N1CCC(Cc2cccc(Oc3ccc(C(F)(F)F)cn3)c2)CC1 [Compound 3, PF3845, reference compound]", "Measurement target": "MAGL (Rattus norvegicus, UniProt Q8R431)", "Experimental endpoint": "MAGL activity, percent of control", "Value measured": "87±12% of control"}
